Assay: Toxicity in po dosed rat
Type: organism-based
Details: in vivo

[
  {
    "compound": "N=C(N/N=C/c1ccc(Cl)cc1)N/N=C/c1ccc(Cl)cc1 [ROBENIDINE]",
    "LD50, mg/kg": 3000
  }
]

* * *

Experiment: Lipophilicity, logD of the compound at pH 7.4
Assay type: physicochemical
Conditions: buffer
Collected logD values appear next to each entry.
measured parameter: logD

[
  {
    "sample smiles": "N=C(N/N=C(\\CO)c1ccc(Cl)cc1)N/N=C(\\CO)c1ccc(Cl)cc1",
    "inequality operator": "=",
    "test value": 4
  },
  {
    "sample smiles": "CC(C)(C)c1ccc(/C=N/NC(=N)N/N=C/c2ccc(C(C)(C)C)cc2)cc1",
    "inequality operator": ">",
    "test value": 5.3
  },
  {
    "sample smiles": "N=C(N/N=C/c1ccc(Cl)cc1)N/N=C/c1ccc(Cl)cc1",
    "inequality operator": "=",
    "test value": 4.5
  }
]

* * *

Test: Toxicity in po dosed female rabbit
Format: organism-based, Oryctolagus cuniculus
Conditions: in vivo
measured parameter: LD50

[
  {
    "sample smiles": "N=C(N/N=C/c1ccc(Cl)cc1)N/N=C/c1ccc(Cl)cc1",
    "measured parameter": "LD50",
    "test value": "2900 mg/kg"
  }
]

* * *

System: Staphylococcus aureus
Experiment: Antibacterial activity against methicillin-sensitive Staphylococcus aureus ATCC 6538 after 20 to 24 hrs
Type: functional
The reader will find reported MIC90 values listed item by item below.

[
  {
    "sample smiles": "C/C(=N\\NC(=N)N/N=C(\\C)c1ccc(Cl)cc1)c1ccc(Cl)cc1",
    "assay system": "Staphylococcus aureus",
    "MIC90": "1.3 µM"
  },
  {
    "sample smiles": "CC1(C)S[C@@H]2[C@H](NC(=O)[C@H](N)c3ccccc3)C(=O)N2[C@H]1C(=O)O",
    "assay system": "Staphylococcus aureus",
    "MIC90": "0.3 µM"
  },
  {
    "sample smiles": "CC(C)(C)c1ccc(/C=N/NC(=N)N/N=C/c2ccc(C(C)(C)C)cc2)cc1",
    "assay system": "Staphylococcus aureus",
    "MIC90": "4.8 µM"
  },
  {
    "sample smiles": "N=C(N/N=C/c1ccc(Cl)cc1)N/N=C/c1ccc(Cl)cc1",
    "assay system": "Staphylococcus aureus",
    "MIC90": "5.4 µM"
  }
]

* * *

Assay: Cytotoxicity against human HEL299 cells after 24 hrs by WST-1 based colorimetric assay
Type: cell-based, HEL 299
A collection of molecules and their measured GI50 at 24 h
measured parameter: GI50 at 24 h (µM)

[
  {
    "sample smiles": "N=C(N/N=C/c1ccc(Cl)cc1)N/N=C/c1ccc(Cl)cc1",
    "test value": 17.7
  },
  {
    "sample smiles": "C/C(=N\\NC(=N)N/N=C(\\C)c1ccc(Cl)cc1)c1ccc(Cl)cc1",
    "test value": 6.7
  },
  {
    "sample smiles": "CC(C)(C)c1ccc(/C=N/NC(=N)N/N=C/c2ccc(C(C)(C)C)cc2)cc1",
    "test value": 28.8
  }
]

* * *

System: Escherichia coli
Experiment: Antibacterial activity against Escherichia coli ATCC 25922 after 20 to 24 hrs in presence of polymyxin B nonapeptide
Type: functional

[
  {
    "molecule": "CC(C)/N=c1\\cc2n(-c3ccc(Cl)cc3)c3ccccc3nc-2cc1Nc1ccc(Cl)cc1 [CLOFAZIMINE]",
    "inequality operator": "=",
    "MIC90 [µM]": 4.2
  },
  {
    "molecule": "N=C(N/N=C/c1ccc(Cl)cc1)N/N=C/c1ccc(Cl)cc1 [ROBENIDINE]",
    "inequality operator": "=",
    "MIC90 [µM]": 21.6
  },
  {
    "molecule": "C/C(=N\\NC(=N)N/N=C(\\C)c1ccc(Cl)cc1)c1ccc(Cl)cc1",
    "inequality operator": "=",
    "MIC90 [µM]": 10
  },
  {
    "molecule": "CC(C)(C)c1ccc(/C=N/NC(=N)N/N=C/c2ccc(C(C)(C)C)cc2)cc1",
    "inequality operator": ">",
    "MIC90 [µM]": 250
  }
]

* * *

Experiment: Cytotoxicity against human HepG2 cells after 24 hrs by WST-1 based colorimetric assay
Type: cell-based

[
  {
    "sample smiles": "CC(C)(C)c1ccc(/C=N/NC(=N)N/N=C/c2ccc(C(C)(C)C)cc2)cc1",
    "GI50 at 24 h, µM": 26.3
  },
  {
    "sample smiles": "C/C(=N\\NC(=N)N/N=C(\\C)c1ccc(Cl)cc1)c1ccc(Cl)cc1",
    "GI50 at 24 h, µM": 13.8
  },
  {
    "sample smiles": "N=C(N/N=C/c1ccc(Cl)cc1)N/N=C/c1ccc(Cl)cc1",
    "GI50 at 24 h, µM": 25.4
  }
]

* * *

Experiment: Metabolic stability in mouse liver microsomes assessed as compound loss after 60 mins
Type: ADME
Settings: read-out: Drug degradation
measured parameter: metabolised at 1 h

[
  {
    "sample smiles": "N=C(N/N=C/c1ccc(Cl)cc1)N/N=C/c1ccc(Cl)cc1",
    "measured parameter": "metabolised at 1 h",
    "test value": "< 15%"
  }
]

* * *

Catalogue of microsomal CLint values
Assay: Intrinsic clearance in mouse liver microsomes assessed per mg of protein
Type: ADME
Settings: read-out: CLH
measured parameter: microsomal CLint (µL/min/mg)

[
  {
    "sample smiles": "CC(C)(C)c1ccc(/C=N/NC(=N)N/N=C/c2ccc(C(C)(C)C)cc2)cc1",
    "inequality operator": "=",
    "test value": 70
  },
  {
    "sample smiles": "N=C(N/N=C/c1ccc(Cl)cc1)N/N=C/c1ccc(Cl)cc1",
    "inequality operator": "<",
    "test value": 7
  },
  {
    "sample smiles": "N=C(N/N=C(\\CO)c1ccc(Cl)cc1)N/N=C(\\CO)c1ccc(Cl)cc1",
    "inequality operator": "=",
    "test value": 13
  }
]

* * *

System: Staphylococcus aureus
Experiment: Bactericidal activity against methicillin-sensitive Staphylococcus aureus ATCC 25923 after 24 and 48 hrs
Format: functional

[
  {
    "compound": "CC(C)(C)c1ccc(/C=N/NC(=N)N/N=C/c2ccc(C(C)(C)C)cc2)cc1",
    "assay system": "Staphylococcus aureus",
    "MBC (µM)": 4.8
  },
  {
    "compound": "C/C(=N\\NC(=N)N/N=C(\\C)c1ccc(Cl)cc1)c1ccc(Cl)cc1",
    "assay system": "Staphylococcus aureus",
    "MBC (µM)": 2.5
  },
  {
    "compound": "CC1(C)S[C@@H]2[C@H](NC(=O)[C@H](N)c3ccccc3)C(=O)N2[C@H]1C(=O)O [AMPICILLIN]",
    "assay system": "Staphylococcus aureus",
    "MBC (µM)": 2
  },
  {
    "compound": "N=C(N/N=C/c1ccc(Cl)cc1)N/N=C/c1ccc(Cl)cc1 [ROBENIDINE]",
    "assay system": "Staphylococcus aureus",
    "MBC (µM)": 5.4
  }
]

* * *

Documented solubility across a set of compounds
Test: Solubility of the compound at pH 2
Assay type: physicochemical
Conditions: buffer

[
  {
    "compound": "N=C(N/N=C/c1ccc(Cl)cc1)N/N=C/c1ccc(Cl)cc1 [ROBENIDINE]",
    "output unit": "µg/mL",
    "inequality operator": "=",
    "solubility": 6.3
  },
  {
    "compound": "N=C(N/N=C(\\CO)c1ccc(Cl)cc1)N/N=C(\\CO)c1ccc(Cl)cc1",
    "output unit": "µg/mL",
    "inequality operator": "=",
    "solubility": 25
  },
  {
    "compound": "CC(C)(C)c1ccc(/C=N/NC(=N)N/N=C/c2ccc(C(C)(C)C)cc2)cc1",
    "output unit": "µg/mL",
    "inequality operator": "<",
    "solubility": 1.6
  }
]

* * *

Assay: Half life of compound in mouse liver microsomes
Format: ADME

[
  {
    "sample smiles": "N=C(N/N=C(\\CO)c1ccc(Cl)cc1)N/N=C(\\CO)c1ccc(Cl)cc1",
    "inequality operator": "=",
    "half-life, h": 2.18
  },
  {
    "sample smiles": "CC(C)(C)c1ccc(/C=N/NC(=N)N/N=C/c2ccc(C(C)(C)C)cc2)cc1",
    "inequality operator": "=",
    "half-life, h": 0.417
  },
  {
    "sample smiles": "N=C(N/N=C/c1ccc(Cl)cc1)N/N=C/c1ccc(Cl)cc1",
    "inequality operator": ">",
    "half-life, h": 4.12
  }
]
